target: BCDIN3D (Homo sapiens); construct: purchased DiscoverX BROMOscan (bromodomains); SGC in-house methyltransferase panel; test: Methyl transferase scintillation proximity assay; assay type: biochemical; settings: average of two measurements, read-out: MTases Inhibition (%)
Sequence (Q7Z5W3 whole entry): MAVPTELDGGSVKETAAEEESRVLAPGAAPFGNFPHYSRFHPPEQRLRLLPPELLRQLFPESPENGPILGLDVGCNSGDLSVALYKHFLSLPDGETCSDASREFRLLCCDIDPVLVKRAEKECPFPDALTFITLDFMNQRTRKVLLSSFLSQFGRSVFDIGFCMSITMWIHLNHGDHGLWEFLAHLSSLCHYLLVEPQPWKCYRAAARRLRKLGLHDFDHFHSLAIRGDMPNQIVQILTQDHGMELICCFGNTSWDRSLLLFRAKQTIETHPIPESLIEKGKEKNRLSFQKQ
Collected inhibition at 10 µM values appear next to each entry.

{"MOLECULE_SMILES": "CN1C[C@H](Nc2cnn(C)c(=O)c2Br)C[C@H](c2ccccc2)C1", "UNIT": "%", "inhibition at 10 µM": 14}
{"MOLECULE_SMILES": "Cc1nnc2c3ccccc3c(N[C@@H](C)[C@H](c3ccccc3)N(C)C)nn12", "UNIT": "%", "inhibition at 10 µM": 9}
{"MOLECULE_SMILES": "Cc1c(NC(=O)c2cc(C(N)=O)nc3cc(F)ccc23)c(C(F)(F)F)nn1Cc1ccc(C(C)(C)C)cc1", "UNIT": "%", "inhibition at 10 µM": 16}
{"MOLECULE_SMILES": "CN(C)CCCOc1ccc(-c2cc(NCCCn3cccn3)nc(S(C)(=O)=O)n2)cc1", "UNIT": "%", "inhibition at 10 µM": 4}

---

biological target: ATAD2B (Homo sapiens, UniProt Q9ULI0); assay: BROMOscan ligand-binding assay; conditions: KD, BROMOscan, ATAD2B
Sequence (Q9ULI0 951-1066 limits assumed): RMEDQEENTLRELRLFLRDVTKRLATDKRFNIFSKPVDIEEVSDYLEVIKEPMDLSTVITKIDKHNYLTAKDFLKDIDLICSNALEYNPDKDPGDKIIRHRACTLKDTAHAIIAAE
PROPERTY_MEASURED: Kd

{"MOLECULE_SMILES": "COc1ccc(CCc2nc3cc(-c4c(C)noc4C)ccc3n2C[C@H](C)N2CCOCC2)cc1Cl", "VALUE_MEASURED": "> 100 µM"}

---

pKd for assorted compounds
target: ATAD2B (Homo sapiens, UniProt Q9ULI0); test: BROMOscan ligand-binding assay; details: BROMOscan Gene Symbol ATAD2B
pKd: −log10 of the molar value.

{"MOLECULE_SMILES": "Cc1noc(C)c1-c1ccc2c(c1)nc(CCc1ccccc1)n2CCN1CCOCC1", "SYSTEM_NAME": "ATAD2B (Homo sapiens, UniProt Q9ULI0)", "pKd": "< 4.30"}
{"MOLECULE_SMILES": "COc1ccc(CCc2nc3cc(-c4c(C)noc4C)ccc3n2CCN2CCOCC2)cc1", "SYSTEM_NAME": "ATAD2B (Homo sapiens, UniProt Q9ULI0)", "pKd": "< 4.30"}

---

target: BRD3(1) (Homo sapiens, UniProt Q15059); assay: BROMOscan ligand-binding assay; settings: KD (BROMOscan), sheet prints no unit (nM)
Sequence (Q15059 34-140 limits assumed): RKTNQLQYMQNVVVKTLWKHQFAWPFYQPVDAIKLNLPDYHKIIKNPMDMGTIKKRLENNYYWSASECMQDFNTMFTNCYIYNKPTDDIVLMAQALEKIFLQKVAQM

{"COMPOUND": "O=C(C=CN1CC2CC1CN2c1ccccn1)c1ccccc1O (stereo not shown) [PFI-3]", "Kd": "> 30000 nM"}

---

Let's look at some molecules and their measured pKd.
molecular target: TAF1L(2) (Homo sapiens); test: BROMOscan ligand-binding assay; details: BROMOscan, TAF1L(2)
Sequence (Q8IZX4 1517-1626 limits assumed): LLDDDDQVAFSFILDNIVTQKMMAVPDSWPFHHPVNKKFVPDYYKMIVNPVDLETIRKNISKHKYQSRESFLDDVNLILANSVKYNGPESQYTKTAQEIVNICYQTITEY
pKd: −log10 of the molar value.

{"MOLECULE": "Cc1cc(=O)n(C)c2cc(N3C(=O)CC[C@H](NS(=O)(=O)CC(C)C)[C@H]3c3ccc(Cl)cc3)ccc12", "pKd": "< 4.30"}
{"MOLECULE": "O=C(C=CN1[C@H]2CC[C@@H]1c1ncnc(NC3CC3)c1C2)c1ccccc1O [PFI-3 D1]", "pKd": "< 4.52"}

---

molecular target: UniProt Q12888; test: Temperature shift assay (non-BRD reader domains); format: binding; details: 10µM compound
Sequence (Q12888 1484-1603 limits assumed, species assumed): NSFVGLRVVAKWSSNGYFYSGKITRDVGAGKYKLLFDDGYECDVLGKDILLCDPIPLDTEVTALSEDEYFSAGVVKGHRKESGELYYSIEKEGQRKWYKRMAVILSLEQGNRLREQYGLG

{"COMPOUND": "COc1cc(Cl)c(C(=O)N[C@@H](CN[C@H]2CC[C@@H](N)CC2)Cc2ccc(C#N)cc2)cc1-c1ccc(CN[C@H](C)c2ccc(C)cc2)o1", "UNIT": "Kelvin", "Tm (C) 10µM, temperature shift": -0.7}
{"COMPOUND": "Cc1cc2c(cc1N1C(=O)c3cccc4c(CCCO)ccc(c34)C1=O)n(C)c(=O)n2C", "UNIT": "Kelvin", "Tm (C) 10µM, temperature shift": 0.3}
{"COMPOUND": "CN(C)CCCOc1ccc(-c2cc(NCCCn3cccn3)nc(S(C)(=O)=O)n2)cc1", "UNIT": "Kelvin", "Tm (C) 10µM, temperature shift": 0.4}
{"COMPOUND": "CO[C@H]1CNC[C@@H](OCC2CCC(F)(F)CC2)[C@@H]1Nc1ncc(-c2cncc(C)c2)c2cc(C)c(=O)[nH]c12", "UNIT": "Kelvin", "Tm (C) 10µM, temperature shift": -0.1}
{"COMPOUND": "CN1C[C@H](Nc2cnn(C)c(=O)c2Br)C[C@H](c2ccccc2)C1", "UNIT": "Kelvin", "Tm (C) 10µM, temperature shift": -0.1}
{"COMPOUND": "CCC(=O)N1CCOc2c(cc(-c3ccc(OC)c(OC)c3)cc2OCC2CCCN(C)C2)C1 (centres unmarked)", "UNIT": "Kelvin", "Tm (C) 10µM, temperature shift": 0.3}
{"COMPOUND": "Cc1c(NC(=O)c2cc(C(N)=O)nc3cc(F)ccc23)c(C(F)(F)F)nn1Cc1ccc(C(C)(C)C)cc1", "UNIT": "Kelvin", "Tm (C) 10µM, temperature shift": -2.3}
{"COMPOUND": "Cc1c(NC(=O)c2cc(C(N)=O)nc3cc(F)ccc23)c(C(F)(F)F)nn1Cc1ccc(C#N)cc1", "UNIT": "Kelvin", "Tm (C) 10µM, temperature shift": 0.0}
